Record form. Attribute: kon. Fill in for each entry.
Molecular target: T1, human TIM-3 ECD (antigen protein of the affinity test) (human, UniProt Q8TDQ0 22-200)
T1 sequence: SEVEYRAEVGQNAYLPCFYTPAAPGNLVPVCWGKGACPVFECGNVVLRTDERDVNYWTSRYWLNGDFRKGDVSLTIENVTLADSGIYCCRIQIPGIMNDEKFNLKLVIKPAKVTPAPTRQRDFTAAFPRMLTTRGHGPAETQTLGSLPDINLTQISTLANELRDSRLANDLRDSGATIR
Experiment: AHC sensor kinetics, antibody captured on sensor, antigen protein in solution, global 1:1 fit
Give bare numbers, in M⁻¹ s⁻¹.

Before answering, review these 2 worked examples.
{"binder": "fully human TIM-3 antibody 57F4E5 (antibody, human IgG4, V domains shown, also called antibody number 7) VH: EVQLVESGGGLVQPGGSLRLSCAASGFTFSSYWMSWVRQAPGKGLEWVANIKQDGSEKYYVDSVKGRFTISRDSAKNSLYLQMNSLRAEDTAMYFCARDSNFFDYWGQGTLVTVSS VL: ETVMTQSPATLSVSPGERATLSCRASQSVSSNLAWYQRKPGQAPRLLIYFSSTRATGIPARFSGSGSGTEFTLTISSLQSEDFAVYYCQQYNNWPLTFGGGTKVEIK", "kon (M⁻¹ s⁻¹)": "1.6e+06"}
{"binder": "fully human TIM-3 antibody 18D2H2 (antibody, human IgG4, V domains shown, also called antibody number 2) VH: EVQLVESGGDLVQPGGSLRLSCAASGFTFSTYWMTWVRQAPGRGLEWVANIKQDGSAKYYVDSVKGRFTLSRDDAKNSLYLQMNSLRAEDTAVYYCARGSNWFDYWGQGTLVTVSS VL: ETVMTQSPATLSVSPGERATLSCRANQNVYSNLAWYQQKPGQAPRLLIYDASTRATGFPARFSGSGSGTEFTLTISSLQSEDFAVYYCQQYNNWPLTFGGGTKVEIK", "kon (M⁻¹ s⁻¹)": "1.22e+06"}

# input for lookup
q: Field request: kon | item: fully human TIM-3 antibody 7A4F10 (antibody, human IgG4, V domains shown, also called antibody number 1) VH: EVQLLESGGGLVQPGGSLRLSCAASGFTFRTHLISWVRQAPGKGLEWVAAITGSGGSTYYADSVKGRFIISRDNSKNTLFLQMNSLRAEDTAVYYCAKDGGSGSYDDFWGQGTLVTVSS VL: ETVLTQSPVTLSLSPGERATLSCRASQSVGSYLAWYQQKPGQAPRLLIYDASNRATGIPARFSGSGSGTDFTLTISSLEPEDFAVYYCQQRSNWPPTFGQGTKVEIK
a: 1.11e+06
